Source of measurements: ChEMBL document CHEMBL1157539

Test system: Plasmodium falciparum
Test: GSK_TCMDC: Inhibition of Plasmodium falciparum 3D7 in whole red blood cells, using parasite LDH activity as an index of growth. Test compounds present at 2uM
Format: functional
In this section, each of the molecules is paired with its reported Inhibition.
readoutName: Inhibition

{"columns": ["molecule", "result"],
 "data": [
  ["O=C(Nc1ccc(C(F)(F)F)cc1)c1ccc(S(=O)(=O)NCC2CCCN(CC3CCCCC3)C2)cc1.O=C(O)C(F)(F)F (stereo not given)", "93%"],
  ["COc1cc(F)c2ncc(Cl)c([C@H](O)CN3CCC(NCc4cc5c(cn4)OCCO5)CC3)c2c1.Cl", "100%"],
  ["O=C(Nc1cccc(C(F)(F)F)c1)c1cc([N+](=O)[O-])cc2cn[nH]c12", "100%"],
  ["COc1ccc2ncc(F)c(CCN3CC(O)C(CNCc4ccc5c(c4)OCCO5)C3)c2n1.Cl (stereo not given)", "94%"],
  ["CCOc1ccc2nc(N(CCCn3ccnc3)C(=O)C=Cc3cccs3)sc2c1.Cl", "97%"]
]}

====

Test system: Plasmodium falciparum
Experiment: GSK_TCMDC: Inhibition of Plasmodium falciparum 3D7 in whole red blood cells, using parasite LDH activity as an index of growth. Test compounds present at 2uM
Assay type: functional
readoutName: Inhibition (%)

{"columns": ["compound", "numericResult"],
 "data": [
  ["Cc1c(CNCCN2CCCCC2)c(C(=O)O)c(C)n1Cc1ccc(Cl)cc1", 97],
  ["COC(=O)c1ccc(N2CCN(CCCCNC(=O)c3ccc(NC(=O)c4ccc(Cl)cc4)cc3)CC2)c(OC)c1", 82],
  ["CCN1C(=O)C(CC(=O)Nc2cccc(Cl)c2)N(Cc2ccc(OC)c(OC)c2)C1=S (stereo not given)", 100],
  ["CCOC(=O)C1=C(C)N=c2sc(=Cc3cc(Cl)ccc3O)c(=O)n2C1c1cc(OC)c(OC)cc1Br (stereo not given)", 97],
  ["COc1cccc(-c2cc(C(=O)NC3CCC(N4CCC(c5ccccc5C)CC4)CC3)[nH]n2)c1 (stereo not given)", 99]
]}

====

System: Plasmodium falciparum
Experiment: GSK_TCMDC: Inhibition of Plasmodium falciparum 3D7 in whole red blood cells, using parasite LDH activity as an index of growth. Test compounds present at 2uM
Type: functional

{"columns": ["molecule", "Inhibition / %"],
 "data": [
  ["O=C(/C=C/c1ccc(Cl)c(Cl)c1)NCCCCCN1CCC(NC(=O)Nc2ccc(Cl)c(C(F)(F)F)c2)CC1", 99],
  ["CS(=O)(=O)c1ccc(CNCc2ccc(-c3ccc(-c4nc5cc(F)ccc5[nH]4)s3)cc2)cc1.O=C(O)C(F)(F)F", 100],
  ["Cc1cccc(NC(=O)NC2CCN(CCCCCNC(=O)/C=C/c3ccc(Cl)c(Cl)c3)CC2)c1", 100],
  ["C#CCCC(=O)Nc1cccc(-c2cccc(-c3nc4cccc(C)c4[nH]3)c2)c1", 97],
  ["CCCCCCCc1c(C)nc2c(OC)cccc2c1O", 89],
  ["Cc1cc(Cc2ccc(S(=O)(=O)c3cc4c(cc3O)CCN(C)CC4)cc2)ccc1Cl.Cl", 96],
  ["O=C(Nc1ccc(N2CCCN(Cc3cccc(F)c3)CC2)cc1)c1ccccc1.O=C(O)C(F)(F)F", 95],
  ["COc1ccc2nccc([C@@H](O)CN3CCC(NS(=O)(=O)c4cc5c(cc4Cl)SCC(=O)N5)CC3)c2c1.O=C(O)C(=O)O", 88],
  ["Cc1noc(-c2cccs2)c1C(=O)NCCc1cccc(Cl)c1", 97],
  ["CC(=O)c1ccc(Nc2c(C(N)=O)cnc3cc(-c4c(C)noc4C)ccc23)cc1", 99],
  ["CC(=O)N(Cc1nc(-c2cc(Cl)c(Cl)s2)cs1)c1c(C)cccc1C", 98],
  ["CC(C)NCc1ccc(OCc2cccc(COc3ccc(CNC(C)C)cc3I)c2)c(I)c1.Cl", 100],
  ["COc1ccnc(NCCCNCc2cn(S(=O)(=O)c3ccccc3)c3ccccc23)c1", 99],
  ["COc1cc(Cc2cnc(N)nc2N)cc(OC)c1OCCCCC(=O)O.Cl", 88],
  ["CC(CO)(CO)NCc1cc2c3ccccc3c(CNC(C)(CO)CO)cc2c2ccccc12.CS(=O)(=O)O", 96],
  ["COc1ccc(-c2cccc(NC(=O)c3ccc(C#N)cc3)c2)cc1CN1CCN(C)CC1.O=C(O)C(F)(F)F", 93],
  ["Oc1ccc2[nH]cc(C3CCN(CCCNCc4ccc(-c5ccccc5)cc4)CC3)c2c1", 100],
  ["Nc1nccc2ccc(-c3ccnc(NCc4cccnc4)n3)cc12", 100],
  ["COC(=O)C(NC(=O)c1ccc(-c2ccc(-c3nc4ccccc4[nH]3)s2)cc1)c1ccc(O)cc1 (centres undefined)", 83]
]}

====

Test system: HepG2
Experiment: GSK_TCMDC: Percent inhibition of human HepG2 cell line. Test compounds present at 10uM.
Format: functional

{"columns": ["molecule", "unitSpec", "Inhibition"],
 "data": [
  ["COc1cc(CNCCCNc2nc(=O)c3sccc3[nH]2)c2[nH]cc(Cl)c2c1.CS(=O)(=O)O", "%", 29],
  ["NCc1ccc(CNCc2cccc(-c3ccc(-c4nc5ccccc5[nH]4)cc3)c2)cc1.O=C(O)C(F)(F)F", "%", 10],
  ["COc1ccc(O)cc1/C=N/Nc1ccnc2cc(Cl)ccc12", "%", 0],
  ["Oc1c(CN2CCCC(C(F)(F)F)C2)cc(Cl)c2ccccc12 (centres undefined)", "%", 23],
  ["O=C(Nc1ccc(C(=O)N2CCN(CCN3CCN(c4cccc(C(F)(F)F)c4)CC3)CC2)cc1)c1ccc(C(F)(F)F)cc1", "%", 39],
  ["Fc1ccc(CNc2ccc3ncc(-c4cccnc4)n3n2)cc1", "%", 7],
  ["COCCn1c(-c2cccc(Cl)c2)nn(-c2ccc([N+](=O)[O-])cc2Cl)c1=S", "%", 2],
  ["COc1cccc(C(=O)Nc2nc3c(s2)CCN(Cc2ccccc2N2CCNCC2)CC3)c1.O=C(O)C(F)(F)F", "%", 7],
  ["CC(COc1ccc2c(c1)OC(C)(C)CC2c1ccccc1)NCC(O)c1cccc(Cl)c1.Cl (centres undefined)", "%", 1],
  ["O=C(O)C(F)(F)F.c1ccc(CNCc2cccc(-c3csc(-c4nc5ccccc5[nH]4)c3)c2)cc1", "%", 24],
  ["Cc1c(Oc2ccc(-n3ccnc3)cc2)ncnc1N1CCC2(CC1)CNCc1ccccc12.O=C(O)C(F)(F)F", "%", 26],
  ["Fc1cc(Cl)ccc1Nc1ccnc2cc(-c3scnc3CNCCN3CCOCC3)ccc12", "%", 0],
  ["Br.CCCCCCCCn1c2c(c(=N)c3c1CCC3)CCC2", "%", 47],
  ["COC(=O)C(C)NCC(=O)c1ccccc1.Cl (centres undefined)", "%", 5],
  ["Cc1cc([N+](=O)[O-])ccc1N1CCN(CCCCNC(=O)c2ccc(NC(=O)c3ccc(Cl)cc3)cc2)CC1", "%", 33],
  ["CCCCC(CC)C(=O)C(NC(=O)[C@H](CSC(c1ccccc1)(c1ccccc1)c1ccccc1)NC(=O)OC(C)(C)C)C(=O)OC (some centres undefined)", "%", 8],
  ["CCOC(=O)C(=CNc1ccc(Cc2cnc(N)nc2N)cc1CC)C(=O)OCC", "%", 47],
  ["O=c1cc(NCCCNCc2ccc3c(c2)OC(F)(F)O3)[nH]c2ccccc12", "%", 0],
  ["COC(=O)c1cccc(CNCc2ccc(-c3cccc(-c4nc5ccccc5[nH]4)c3)cc2)c1.O=C(O)C(F)(F)F", "%", 5]
]}

====

Entries and their Inhibition values follow.
Tested on: Plasmodium falciparum
Assay: GSK_TCMDC: Inhibition of Plasmodium falciparum Dd2 in whole red blood cells, using parasite LDH activity as an index of growth. Test compounds present at 2uM
Assay type: functional
readoutName: Inhibition (%)

{"columns": ["compound", "unitSpec", "numericResult"],
 "data": [
  ["Clc1ccc2c(NCc3ccccc3)ccnc2c1", "%", 100],
  ["Cc1ccc2[nH]c([N-]C#N)nc2c1.[Na+]", "%", 0],
  ["CC[C@H](C)CNC(=O)c1cncc(-c2cccc(CN3CCC(N4CCCC4)CC3)c2)c1.O=C(O)C(F)(F)F", "%", 5],
  ["Cc1c(CC(=O)NCCC2CCN(CCCCCNC(=O)/C=C/c3ccc(Cl)c(Cl)c3)CC2)sc2ccc(Cl)cc12", "%", 8],
  ["FC(F)(F)c1ccc2[nH]c(-c3cccc(-c4ccc(CNCCN5CCNCC5)cc4)c3)nc2c1.O=C(O)C(F)(F)F", "%", 0],
  ["Cc1cccc2nc(-c3ccc(-c4cccc(CNCCCN5CCCC5=O)c4)cc3)[nH]c12.O=C(O)C(F)(F)F", "%", 3],
  ["Cc1c(Cn2ncc(N3CCC(N)CC3)c(Cl)c2=O)cccc1NC(=O)Nc1ccc(-c2ccccc2)cc1.O=C(O)C(F)(F)F", "%", 43],
  ["COc1ccc(CNCC2CCC(CNCCc3ccccc3)CC2)cc1Cl (configuration not stated)", "%", 29],
  ["Cc1ccc(NC(=O)c2ccc(Cl)c(Cl)c2)cc1-c1ccc(C(=O)Nc2ccncc2)cc1", "%", 79],
  ["Cc1cc(Nc2ccc3c(c2)CCC3)n2ncnc2n1", "%", 48],
  ["Cc1nc(C)c(-c2ccc(C(=O)c3ccccc3)cc2)c(O)c1Br", "%", 96],
  ["O=C(NCCc1cccc(F)c1)c1ccc(N2CCN(c3ccncc3)CC2)cn1.O=C(O)C(F)(F)F", "%", 7],
  ["O=[N+]([O-])c1ccc(/C=N/Nc2cc(-c3ccccc3)nc3ccccc23)o1", "%", 49],
  ["CCCc1ccc(S(=O)(=O)Nc2ccc3c(c2)CCC3)cc1", "%", 0],
  ["O=C(Nc1ccc(CCNC2=NCCN2)cc1)Nc1ccc(CCNC2=NCCN2)cc1", "%", 66],
  ["CCN1CCN(c2cc(C)c3cc(NC(=O)c4ccc(OC)c([N+](=O)[O-])c4)ccc3n2)CC1", "%", 93],
  ["Cl.N=c1c2c(n(Cc3cccc(Cl)c3)c3c1CCC3)CCCC2", "%", 86],
  ["O=C(NC1CCN(Cc2ccccc2)CC1)c1cccc(-c2cc3cc(Cl)c(Cl)cc3[nH]2)c1.O=C(O)C(F)(F)F", "%", 86],
  ["CC1CN(c2cnn(Cc3cccc(NC(=O)Nc4cccc(C(F)(F)F)c4)c3)c(=O)c2Cl)CC(C)N1.O=C(O)C(F)(F)F (configuration not stated)", "%", 74],
  ["COc1ccc2[nH]cc(C3CCN(CCCCNC(=O)c4ccc(NC(=O)c5ccc(Cl)cc5)cc4)CC3)c2c1", "%", 16],
  ["COc1cc(CNC[C@@H](O)[C@H](Cc2ccccc2)NC(=O)c2cc(OC(C)C)cc(N3CCCS3(=O)=O)c2)cc(OC)c1.Cl", "%", 72],
  ["NC1CCN(Cc2ccc(-c3cccc(-c4nc5ccccc5[nH]4)c3)cc2)C1.O=C(O)C(F)(F)F (configuration not stated)", "%", 0],
  ["CCOc1cc(C(=O)NCC2CCN(CC3CCCCC3)CC2)ccc1-c1nc2cc(Cl)ccc2[nH]1", "%", 59],
  ["Cl.O=C(Nc1cc(Cl)cc(Cl)c1)c1cnn(-c2ccc(F)cc2)c1C1CCNCC1", "%", 0],
  ["O=C(Nc1nc(-c2ccccn2)cc2ccccc12)c1cccc(Cl)c1", "%", 72],
  ["COc1ccc2nc3cc(Cl)ccc3c(Nc3ccc(Oc4ccc(Nc5c6ccc(Cl)cc6nc6ccc(OC)cc56)cc4)cc3)c2c1.Cl", "%", 93],
  ["CS(=O)(=O)Cc1ccc(Nc2nccc(-c3c(-c4cccc(NC(=O)C5CCCCC5)c4)nn4ncccc34)n2)cc1", "%", 99],
  ["COC(=O)c1cccc(C#CCCOCCCCCCNC[C@H](O)c2cc(Cl)c(N)c(Cl)c2)c1", "%", 88],
  ["CCc1nonc1NC(=O)c1oc2c(C)c(C)ccc2c1C", "%", 64],
  ["CC(C)c1ccc(NC(=O)c2ccc(NCCCN(C)Cc3ccccc3)c([N+](=O)[O-])c2)cc1", "%", 35],
  ["Cc1cc2c3c(N)nc(N)nc3ccc2n1C", "%", 0],
  ["Cl.Oc1c(Cl)cc(-c2ccccc2)cc1CNC1CCCCC1", "%", 95],
  ["CCN(CC)/C(=N\\CCCCCC/N=C(\\NC(=N)c1ccc(Cl)cc1)N(CC)CC)NC(=N)c1ccc(Cl)cc1", "%", 99],
  ["COc1ccc(-c2cccc(NC(=O)c3ccccc3)c2)cc1CN1CCCN(C)CC1.O=C(O)C(F)(F)F", "%", 25],
  ["CCOC(=O)c1cc(=O)c2ccc(OCC#N)cc2o1", "%", 86],
  ["CC(C)C[C@H](NC(=O)c1ccc(F)cc1)C(=O)N[C@H](/C=N/NC(=O)c1ccccc1)CCc1ccccc1", "%", 61],
  ["Cc1cc(CN2CCC(N3CC(c4ccccc4)(c4ccccc4)OC3=O)C2)ccc1O (configuration not stated)", "%", 68]
]}
